target: HEK293 cells with stable expression of the GRIN1 gene and tetracycline-inducible expression of the GRIN2B gene (NMDA receptor, NR2B) (Homo sapiens, UniProt Q13224); assay: Fluo-8 Ca2+ flux assay: reversal of Ro 25-6981-mediated suppression of the Ca2+ response to co-agonist (glutamate/glycine); type: cell-based; conditions: reversal of the Ro 25-6981 suppression of the Ca2+ response to co-agonist (glutamate/glycine); note: test concentration or dose not given here
Sequence (Q13224 27-1484, other chains not shown): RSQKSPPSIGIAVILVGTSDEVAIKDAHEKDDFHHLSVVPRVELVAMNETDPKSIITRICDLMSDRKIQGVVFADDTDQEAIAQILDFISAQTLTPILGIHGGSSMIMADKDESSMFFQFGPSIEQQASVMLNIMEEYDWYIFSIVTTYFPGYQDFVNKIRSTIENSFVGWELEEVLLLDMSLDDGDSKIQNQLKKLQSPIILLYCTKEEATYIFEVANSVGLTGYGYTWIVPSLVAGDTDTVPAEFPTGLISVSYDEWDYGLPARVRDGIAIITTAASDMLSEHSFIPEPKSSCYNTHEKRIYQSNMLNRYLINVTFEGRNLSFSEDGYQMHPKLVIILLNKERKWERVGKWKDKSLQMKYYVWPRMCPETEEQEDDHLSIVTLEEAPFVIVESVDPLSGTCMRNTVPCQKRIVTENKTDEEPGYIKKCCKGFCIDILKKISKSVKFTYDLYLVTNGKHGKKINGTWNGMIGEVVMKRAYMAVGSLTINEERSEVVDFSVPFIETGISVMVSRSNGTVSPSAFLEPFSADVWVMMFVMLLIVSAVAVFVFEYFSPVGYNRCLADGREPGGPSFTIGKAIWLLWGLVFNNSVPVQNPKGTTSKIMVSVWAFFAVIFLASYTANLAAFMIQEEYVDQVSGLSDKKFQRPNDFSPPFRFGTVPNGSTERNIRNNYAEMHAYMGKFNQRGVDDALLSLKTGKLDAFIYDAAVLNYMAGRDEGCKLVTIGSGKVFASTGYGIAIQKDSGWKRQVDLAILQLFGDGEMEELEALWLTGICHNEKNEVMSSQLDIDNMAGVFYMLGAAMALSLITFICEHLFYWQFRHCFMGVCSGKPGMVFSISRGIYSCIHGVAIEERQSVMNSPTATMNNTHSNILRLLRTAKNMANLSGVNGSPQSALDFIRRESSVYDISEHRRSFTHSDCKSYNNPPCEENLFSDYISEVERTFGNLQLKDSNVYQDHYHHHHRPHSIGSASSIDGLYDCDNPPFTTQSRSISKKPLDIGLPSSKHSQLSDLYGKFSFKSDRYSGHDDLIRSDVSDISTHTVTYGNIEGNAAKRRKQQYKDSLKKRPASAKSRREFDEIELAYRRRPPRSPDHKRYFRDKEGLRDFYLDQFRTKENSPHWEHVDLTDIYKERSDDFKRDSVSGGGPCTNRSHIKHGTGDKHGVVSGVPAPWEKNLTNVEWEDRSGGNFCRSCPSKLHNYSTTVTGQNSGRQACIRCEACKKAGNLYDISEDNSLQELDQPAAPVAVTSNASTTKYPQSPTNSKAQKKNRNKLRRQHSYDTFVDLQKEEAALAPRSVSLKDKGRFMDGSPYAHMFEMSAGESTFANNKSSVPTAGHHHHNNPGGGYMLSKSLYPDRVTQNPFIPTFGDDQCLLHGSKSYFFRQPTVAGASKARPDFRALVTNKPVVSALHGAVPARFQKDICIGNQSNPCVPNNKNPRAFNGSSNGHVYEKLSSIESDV
observable: Response Recovered (%)

Solved entries (count: 3):
• COC1CN(C(=O)Cn2cnc3ccn(-c4ccc(Cl)cc4)c3c2=O)C1 = 1
• CCn1cc(-c2ccc(F)c(C(F)(F)F)c2)c2c(=O)n(CC(=O)N3CCC(F)C3)cnc21 (centres unmarked) = 66
• O=C(Cn1ccc2scc(-c3ccc(F)c(C(F)(F)F)c3)c2c1=O)N1CC2C(C1)C2(F)F (centres unmarked) = 37

(1) O=C(Cn1ccc2[nH]cc(-c3ccc(F)c(C(F)(F)F)c3)c2c1=O)N1CC(F)C(F)C1 (centres unmarked)
(2) CCC1(F)CN(C(=O)Cn2ccc3scc(-c4cncc(Cl)n4)c3c2=O)C1
(3) Cn1cc(-c2ccc(F)c(Cl)c2)c2c(=O)n(CC(=O)N3CC(F)(F)C3)cnc21
(4) Cn1cc(-n2cc(-c3ccc(Cl)c(Cl)c3)c3c(=O)n(CC(=O)N4CC(C)(F)C4)ccc32)cn1
(5) COCCn1cc(-c2ccc(Cl)c(F)c2)c2c(=O)n(CC(=O)N3CCCC3)cnc21
-- ask Thanks in advance: please rank these 5 entries by Response Recovered (%), highest to lowest. Enter labels, ranked according to the request.
-- reply 1, 3, 5, 4, 2
(1: 120%, 3: 40%, 5: 9%, 4: 5.2%, 2: −0.39%)

----------
target: HEK293 cells with stable expression of the GRIN1 gene and tetracycline-inducible expression of the GRIN2B gene (NMDA receptor, NR2B) (Homo sapiens, UniProt Q13224); experiment: Fluo-8 Ca2+ flux assay: reversal of Ro 25-6981-mediated suppression of the Ca2+ response to co-agonist (glutamate/glycine); format: cell-based; details: reversal of the Ro 25-6981 suppression of the Ca2+ response to co-agonist (glutamate/glycine); note: test concentration or dose not given here
observable: Response Recovered (%)

* O=C(Cn1ccn2ncc(-c3ccc(Cl)c(Cl)c3)c2c1=O)N1CCC(F)C1 (stereo not drawn) [Example 327] | 54
* O=C(Cn1ccc2ccc(-c3ccc(Cl)c(C(F)(F)F)c3)cc2c1=O)N1CCCC1 [Example 310] | 3
* COCn1cc(-c2ccc(Cl)c(Cl)c2)c2c(=O)n(CC(=O)N3CCC(F)C3)ccc21 (stereo not drawn) [Example 249] | 70
* C[Si](C)(C)CCOCn1cc(-c2ccc(Cl)c(F)c2)c2c(=O)n(CC(=O)N3CCC(F)C3)ccc21 (stereo not drawn) [Example 202] | 32
* O=C(Cn1cnc2csc(-c3ccc(Cl)c(F)c3)c2c1=O)N1CCC(F)C1 (stereo not drawn) [Example 364] | 35
* O=C(Cn1cc(CN2CCCC2)c2scc(-c3ccc(Cl)c(Cl)c3)c2c1=O)N1CCC(F)C1 (stereo not drawn) [Example 121] | 59

(1) CN(C)Cc1cn(CC(=O)N2CCC(F)C2)c(=O)c2c(-c3ccc(F)c(Cl)c3)csc12 (stereo not drawn) [Example 120]
(2) Cc1sc(-c2ccc(Cl)c(F)c2)c2c(=O)n(CC(=O)N3CCCC3)cnc12 [Example 369]
(3) O=C(Cn1ccc2scc(-c3ccc(F)c(Cl)c3)c2c1=O)N1CC2(COC2)C1 [Example 67]
-- ask Thanks in advance: please rank these 3 entries by Response Recovered (%), highest to lowest. Use the labels to give the requested order.
-- reply 1, 2, 3
(1: 61%, 2: 33%, 3: 4.4%)

----------
target: HEK293 cells with stable expression of the GRIN1 gene and tetracycline-inducible expression of the GRIN2B gene (NMDA receptor, NR2B) (Homo sapiens); experiment: Fluo-8 Ca2+ flux assay: reversal of Ro 25-6981-mediated suppression of the Ca2+ response to co-agonist (glutamate/glycine); format: cell-based; conditions: reversal of the Ro 25-6981 suppression of the Ca2+ response to co-agonist (glutamate/glycine)
observable: Response Recovered (%)

* CC1(F)CN(C(=O)Cn2ccc3scc(-c4ccc(Cl)c(F)c4)c3c2=O)C1 [Example 18] | 120
* O=C(Cn1cc(-c2ccccc2)c2scc(-c3ccc(F)c(C(F)(F)F)c3)c2c1=O)N1CCCC1 [Example 104] | 22
* Cc1cn(CC(=O)N2CCCC2)c(=O)c2c(-c3ccc(Cl)c(C(F)(F)F)c3)csc12 [Example 106] | 76
* CC(C)(O)Cn1cc(-c2ccc(F)c(C(F)(F)F)c2)c2c(=O)n(CC(=O)N3CCC(F)C3)ccc21 (stereo not drawn) [Example 257] | 20
* O=C(Cn1ccn2ccc(-c3ccc(F)c(C(F)(F)F)c3)c2c1=O)N1CCC(F)C1 (stereo not drawn) [Example 390] | 51
* O=C(Cn1cnc2c(c(-c3ccc(Cl)c(C(F)(F)F)c3)cn2CCF)c1=O)N1CCCC1 [Example 149] | 64
* Cc1ncc(-c2csc3ccn(CC(=O)N4CC(F)(CF)C4)c(=O)c23)cc1Cl [Example 92] | 70
* O=C(Cn1ccn2ccc(-c3ccc(F)c(Cl)c3)c2c1=O)N1CC(F)(c2ccccc2)C1 [Example 399] | 1.5

(a) CC1(F)CN(C(=O)Cn2ccc3scc(-c4ccc(Cl)c(Cl)c4)c3c2=O)C1 [Example 42]
(b) O=C(Cn1ccc2cccc(-c3ccc(F)c(Cl)c3)c2c1=O)N1CCCC1 [Example 303]
-- ask Lab log: flag the item ( a or b ) with the smaller Response Recovered (%) figure. Please respond with the label that marks your chosen entry.
-- reply b

(I) O=C(Cn1ccc2scc(-c3ccc(F)c(C(F)(F)F)c3)c2c1=O)N1CC[C@@H](F)C1 [Example 27]
(II) O=C(Cn1ccc2cccc(-c3ccc(F)c(Cl)c3)c2c1=O)N1CCC(F)C1 (stereo not drawn) [Example 302]
-- ask Which gives the smaller Response Recovered (%) number: I or II ? # answer = label of selected item
-- reply II
(II: 40%, I: 81%)

(P) O=C(Cn1cc(CO)c2scc(-c3ccc(F)c(C(F)(F)F)c3)c2c1=O)N1CCC(F)C1 (stereo not drawn) [Example 111]
(Q) O=C(Cn1ccc2scc(-c3cnc(F)c(F)c3)c2c1=O)N1CC(F)(CF)C1 [Example 144]
-- ask Could you tell me which of P and Q has the lower Response Recovered (%) reading? State your choice using its label.
-- reply Q
(Q: 9.8%, P: 97%)

(a) O=C(Cn1ccc2[nH]cc(-c3ccc(Cl)c(C(F)(F)F)c3)c2c1=O)N1CC(F)(F)C1 [Example 212]
(b) O=C(Cn1nnc2scc(-c3ccc(Cl)c(C(F)(F)F)c3)c2c1=O)N1CC(F)(F)C1 [Example 333]
(c) O=C(Cn1ccc2ncc(-c3ccc(F)c(Cl)c3)n2c1=O)N1CCC(F)C1 (stereo not drawn) [Example 451]
(d) O=C(Cn1ncc2scc(-c3ccc(F)c(Cl)c3)c2c1=O)N1CCCC1 [Example 337]
(e) O=C(Cn1cnc2csc(-c3ccc(Cl)c(F)c3)c2c1=O)N1CCC(C(F)(F)F)C1 (stereo not drawn) [Example 365]
-- ask Could you please sort these 5 entries by Response Recovered (%) from high to low? Please express your ranking as an ordered list of the labels.
-- reply a, c, b, d, e

(A) O=C(Cn1ccc2scc(-c3ccc(Cl)c(Cl)c3)c2c1=O)N1CC(F)(c2ccccc2)C1 [Example 53]
(B) O=C(Cn1ccc2[nH]cc(-c3ccc(Cl)c(F)c3)c2c1=O)N1CCCC1 [Example 211]
-- ask Higher Response Recovered (%): A or B ? Indicate your choice by writing its label.
-- reply B

(P) CCC1(F)CN(C(=O)Cn2ccc3scc(-c4cnc(Cl)c(C)c4)c3c2=O)C1 [Example 85]
(Q) O=C(Cn1ccc2scc(-c3ccc(C(F)(F)F)c(Cl)c3)c2c1=O)N1CCC(F)C1 (stereo not drawn) [Example 13]
(R) CCn1cc(-c2ccc(Cl)c(C(F)(F)F)c2)c2c(=O)n(CC(=O)N3CC(F)(F)C3)cnc21 [Example 169]
(S) N#Cc1ncc(-c2csc3ccn(CC(=O)N4CC(F)(CF)C4)c(=O)c23)cc1Cl [Example 138]
-- ask Please put the entries in order of rising Response Recovered (%). Give your ranking as a list of the labels in the requested order.
-- reply S, P, R, Q
(S: 10%, P: 16%, R: 57%, Q: 90%)

(P) Cc1cc(-c2nc(C3CC3)n3ccn(CC(=O)N4CC(C)(F)C4)c(=O)c23)ccc1Cl [Example 443]
(Q) O=C(Cn1ccc2scc(-c3ccc(F)c(Cl)c3)c2c1=O)N1CC[C@H](F)C1 [Example 40]
-- ask Please indicate which has the smaller reported Response Recovered (%): P , or Q . State the label of the item chosen.
-- reply Q
(Q: 46%, P: 120%)

----------
biological target: HEK293 cells with stable expression of the GRIN1 gene and tetracycline-inducible expression of the GRIN2B gene (NMDA receptor, NR2B) (Homo sapiens, UniProt Q13224); test: Fluo-8 Ca2+ flux assay: reversal of Ro 25-6981-mediated suppression of the Ca2+ response to co-agonist (glutamate/glycine); type: cell-based; details: reversal of the Ro 25-6981 suppression of the Ca2+ response to co-agonist (glutamate/glycine); note: test concentration or dose not given here
observable: Response Recovered (%)

Please review the following examples before continuing.
- O=C(Cn1ccc2c(c(-c3ccc(F)c(Cl)c3)cn2C2CC2)c1=O)N1CCC(F)C1 (stereo not drawn): 66
- O=C(Cn1ncc2scc(-c3ccc(F)c(Cl)c3)c2c1=O)N1CCC(F)C1 (stereo not drawn): 15
- O=C(Cn1cnc2csc(-c3ccc(Cl)cc3)c2c1=O)N1CCC(O)C1 (stereo not drawn): 7
- O=C(Cn1ccc2cccc(-c3ccc(Cl)c(Cl)c3)c2c1=O)N1CCC(F)C1 (stereo not drawn): 60

(P) O=C(Cn1ccn2c(C3CC3)nc(-c3ccc(Cl)c(Cl)c3)c2c1=O)N1CC(F)(CF)C1
(Q) CC1(F)CN(C(=O)Cn2ccn3cnc(-c4ccc(Cl)c(Cl)c4)c3c2=O)C1
(R) Cc1nc(-c2ccc(Cl)c(Cl)c2)c2c(=O)n(CC(=O)N3CCC(F)C3)ccn12 (stereo not drawn)
-- ask Sort these molecules on Response Recovered (%) so the largest reading comes first. Present the labels in the sequence the task asks for.
-- reply P, Q, R
(P: 110%, Q: 58%, R: 11%)
